Please go through the items and note down their EC50.
- target.or.system: Nuclear receptor ROR-alpha (Homo sapiens)
- Sequence (P35398 whole entry): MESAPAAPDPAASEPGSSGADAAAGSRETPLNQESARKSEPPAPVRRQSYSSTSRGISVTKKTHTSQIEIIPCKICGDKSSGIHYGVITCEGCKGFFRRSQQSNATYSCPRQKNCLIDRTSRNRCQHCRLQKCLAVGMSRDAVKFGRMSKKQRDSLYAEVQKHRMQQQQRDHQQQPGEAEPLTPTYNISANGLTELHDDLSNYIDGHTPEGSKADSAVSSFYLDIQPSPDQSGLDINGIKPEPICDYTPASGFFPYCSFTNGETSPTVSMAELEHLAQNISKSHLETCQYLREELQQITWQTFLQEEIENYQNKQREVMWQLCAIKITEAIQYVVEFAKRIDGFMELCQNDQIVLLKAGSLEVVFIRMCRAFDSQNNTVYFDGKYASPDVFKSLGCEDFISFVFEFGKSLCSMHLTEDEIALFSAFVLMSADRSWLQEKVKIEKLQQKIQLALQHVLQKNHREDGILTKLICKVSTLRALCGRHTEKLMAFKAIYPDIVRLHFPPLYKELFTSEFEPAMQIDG
- test.protocol: Inverse agonist activity at GAL4-fused human RORa expressed in HEK293T cells assessed as suppression of basal transcriptional activity after 20 hrs by dual-glo luciferase reporter gene assay
Give bare numbers, in µM.

For the 3 molecules below, give their EC50 values.
1. CCN(c1ccc(C(O)(C(F)(F)F)C(F)(F)F)cc1)S(=O)(=O)c1ccccc1
2. O=S(=O)(c1ccc(F)cc1)N(CC(F)(F)F)c1ccc(C(O)(C(F)(F)F)C(F)(F)F)cc1
3. N#Cc1ccc(S(=O)(=O)N(CC(F)(F)F)c2ccc(C(O)(C(F)(F)F)C(F)(F)F)cc2)cc1

5
6
7

---

For each of the compounds below, state its pEC50.
- target.or.system: UniProtKB Q92753
- Sequence (Q92753 whole entry, the tested form may be a part): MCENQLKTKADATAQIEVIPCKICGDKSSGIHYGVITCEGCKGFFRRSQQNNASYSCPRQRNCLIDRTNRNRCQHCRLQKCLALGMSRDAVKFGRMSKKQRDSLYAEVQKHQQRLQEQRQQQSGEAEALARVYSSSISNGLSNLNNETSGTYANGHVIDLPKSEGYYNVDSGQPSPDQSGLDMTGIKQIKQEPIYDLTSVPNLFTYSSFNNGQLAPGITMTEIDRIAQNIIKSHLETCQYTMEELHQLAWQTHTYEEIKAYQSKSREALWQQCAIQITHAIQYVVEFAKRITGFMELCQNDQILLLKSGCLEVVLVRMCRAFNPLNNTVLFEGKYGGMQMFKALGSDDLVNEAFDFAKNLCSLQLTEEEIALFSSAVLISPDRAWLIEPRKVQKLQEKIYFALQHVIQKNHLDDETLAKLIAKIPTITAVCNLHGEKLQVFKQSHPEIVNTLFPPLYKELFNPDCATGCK
- test.protocol: Inverse agonist activity at GAL4-fused human RORb expressed in HEK293T cells assessed as suppression of basal transcriptional activity after 20 hrs by dual-glo luciferase reporter gene assay
Answers are plain numbers, as −log10 of the molar value.

Examples from the recorded data:
>  <smi>
O=S(=O)(c1ccc(F)cc1)N(CC(F)(F)F)c1ccc(C(O)(C(F)(F)F)C(F)(F)F)cc1

>  <target.or.system>
UniProtKB Q92753

>  <test.result>
5.22

$$$$
>  <smi>
CCN(c1ccc(C(O)(C(F)(F)F)C(F)(F)F)cc1)S(=O)(=O)c1ccccc1

>  <target.or.system>
UniProtKB Q92753

>  <test.result>
5.40

$$$$

Dear colleague, I am looking for the recorded pEC50 of the following compound: N#Cc1ccc(S(=O)(=O)N(CC(F)(F)F)c2ccc(C(O)(C(F)(F)F)C(F)(F)F)cc2)cc1
5.30

---

- target.or.system: UniProtKB P55055
- Sequence (P55055 whole entry): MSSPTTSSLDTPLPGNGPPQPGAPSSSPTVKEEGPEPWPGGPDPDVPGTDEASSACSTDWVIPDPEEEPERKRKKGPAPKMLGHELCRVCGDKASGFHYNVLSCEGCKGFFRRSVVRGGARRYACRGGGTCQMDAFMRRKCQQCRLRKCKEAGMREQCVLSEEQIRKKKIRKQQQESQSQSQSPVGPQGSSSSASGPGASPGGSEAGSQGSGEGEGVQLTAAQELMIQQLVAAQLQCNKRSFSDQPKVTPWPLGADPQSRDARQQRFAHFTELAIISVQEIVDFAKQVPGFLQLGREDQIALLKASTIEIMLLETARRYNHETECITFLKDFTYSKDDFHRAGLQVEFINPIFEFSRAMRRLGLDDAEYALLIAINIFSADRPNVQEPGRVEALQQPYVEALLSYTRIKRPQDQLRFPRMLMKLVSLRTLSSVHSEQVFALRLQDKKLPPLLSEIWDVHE
endpoint.label: pEC50
Numbers only, as −log10 of the molar value.

Examples with their reported pEC50 follow.
>  <smi>
CCN(c1ccc(C(O)(C(F)(F)F)C(F)(F)F)cc1)S(=O)(=O)c1ccccc1

>  <pEC50>
6.61

$$$$
>  <smi>
O=S(=O)(c1ccc(F)cc1)N(CC(F)(F)F)c1ccc(C(O)(C(F)(F)F)C(F)(F)F)cc1

>  <pEC50>
6.41

$$$$

Next, consider the following compound.
Entry N#Cc1ccc(S(=O)(=O)N(CC(F)(F)F)c2ccc(C(O)(C(F)(F)F)C(F)(F)F)cc2)cc1 : reported pEC50 = ?
6.04
